- assay-procedure: Solubility of compound in JP2 at pH 6.8 using UV assay
- Assay type: physicochemical
- condition-set: JP2, pH 6.8
experimental-readout: solubility

smiles-repr	result
CC(=O)O[C@@]12CO[C@@H]1CC[C@@]1(C)[C@@H]3O[C@H](CN4CCOCC4)O[C@@H]3C3=C(C)[C@@H](OC(=O)[C@H](O)[C@@H](NC(=O)OC(C)(C)C)c4ccccc4)C[C@@](O)([C@@H](OC(=O)c4ccccc4)[C@@H]12)C3(C)C	< 4 µg/mL
CC(=O)O[C@@]12CO[C@@H]1CC[C@@]1(C)[C@@H]3O[C@H](CN4CCOCC4)O[C@@H]3C3=C(C)[C@@H](OC(=O)[C@H](O)[C@@H](NC(=O)OC(C)(C)C)c4ccccn4)C[C@@](O)([C@@H](OC(=O)c4ccccc4)[C@@H]12)C3(C)C	11 µg/mL
CC(=O)O[C@@]12CO[C@@H]1CC[C@@]1(C)[C@@H]3O[C@H](CN4CCOCC4)O[C@@H]3C3=C(C)[C@@H](OC(=O)[C@](C)(O)[C@@H](NC(=O)OC(C)(C)C)c4ccccn4)C[C@@](O)([C@@H](OC(=O)c4ccccc4)[C@@H]12)C3(C)C	5 µg/mL
CC(=O)O[C@@]12CO[C@@H]1CC[C@@]1(C)[C@@H]3O[C@H](CN4CCOCC4)O[C@@H]3C3=C(C)[C@@H](OC(=O)[C@](C)(O)[C@@H](NC(=O)c4ccccc4)c4ccccn4)C[C@@](O)([C@@H](OC(=O)c4ccccc4)[C@@H]12)C3(C)C	< 4 µg/mL
CC(=O)O[C@@]12CO[C@@H]1C[C@H](O)[C@@]1(C)C(=O)[C@H](O)C3=C(C)[C@@H](OC(=O)[C@H](O)[C@@H](NC(=O)OC(C)(C)C)c4ccccc4)C[C@@](O)([C@@H](OC(=O)c4ccccc4)[C@H]21)C3(C)C.O.O.O	< 4 µg/mL
CC(=O)O[C@@]12CO[C@@H]1CC[C@@]1(C)[C@@H]3O[C@H](CN4CCOCC4)O[C@@H]3C3=C(C)[C@@H](OC(=O)[C@](C)(O)[C@@H](NC(=O)OC(C)(C)C)c4ccccc4)C[C@@](O)([C@@H](OC(=O)c4ccccc4)[C@@H]12)C3(C)C	< 4 µg/mL

----------
- assay-procedure: Solubility in water using UV assay
- Type: physicochemical
experimental-readout: solubility

smiles-repr	experimental-readout	result
CC(=O)O[C@@]12CO[C@@H]1CC[C@@]1(C)[C@@H]3O[C@H](CN4CCOCC4)O[C@@H]3C3=C(C)[C@@H](OC(=O)[C@H](O)[C@@H](NC(=O)OC(C)(C)C)c4ccccc4)C[C@@](O)([C@@H](OC(=O)c4ccccc4)[C@@H]12)C3(C)C	solubility	< 4 µg/mL
CC(=O)O[C@@]12CO[C@@H]1CC[C@@]1(C)[C@@H]3O[C@H](CN4CCOCC4)O[C@@H]3C3=C(C)[C@@H](OC(=O)[C@](C)(O)[C@@H](NC(=O)c4ccccc4)c4ccccn4)C[C@@](O)([C@@H](OC(=O)c4ccccc4)[C@@H]12)C3(C)C	solubility	< 4 µg/mL
CC(=O)O[C@@]12CO[C@@H]1CC[C@@]1(C)[C@@H]3O[C@H](CN4CCOCC4)O[C@@H]3C3=C(C)[C@@H](OC(=O)[C@H](O)[C@@H](NC(=O)OC(C)(C)C)c4ccccn4)C[C@@](O)([C@@H](OC(=O)c4ccccc4)[C@@H]12)C3(C)C	solubility	14 µg/mL
CC(=O)O[C@@]12CO[C@@H]1CC[C@@]1(C)[C@@H]3O[C@H](CN4CCOCC4)O[C@@H]3C3=C(C)[C@@H](OC(=O)[C@](C)(O)[C@@H](NC(=O)OC(C)(C)C)c4ccccc4)C[C@@](O)([C@@H](OC(=O)c4ccccc4)[C@@H]12)C3(C)C	solubility	< 4 µg/mL
CC(=O)O[C@@]12CO[C@@H]1CC[C@@]1(C)[C@@H]3O[C@H](CN4CCOCC4)O[C@@H]3C3=C(C)[C@@H](OC(=O)[C@](C)(O)[C@@H](NC(=O)OC(C)(C)C)c4ccccn4)C[C@@](O)([C@@H](OC(=O)c4ccccc4)[C@@H]12)C3(C)C	solubility	6 µg/mL
CC(=O)O[C@@]12CO[C@@H]1C[C@H](O)[C@@]1(C)C(=O)[C@H](O)C3=C(C)[C@@H](OC(=O)[C@H](O)[C@@H](NC(=O)OC(C)(C)C)c4ccccc4)C[C@@](O)([C@@H](OC(=O)c4ccccc4)[C@H]21)C3(C)C.O.O.O	solubility	< 4 µg/mL

----------
- Test system: PC-6
- assay-procedure: Cytotoxic activity against human lung cancer PC-6 cell line
- Type: functional
Exam item: assign t to entries whose GI50 is below 0.4 ng/mL and f to entries at or above 0.4 ng/mL. Note that a value of exactly 0.4 ng/mL receives f.

smiles-repr	qualitative-label
CC(=O)O[C@@]12CO[C@@H]1CC[C@@]1(C)[C@@H]3O[C@H](CN4CCOCC4)O[C@@H]3C3=C(C)[C@@H](OC(=O)[C@](C)(O)[C@@H](NC(=O)OC(C)(C)C)c4ccccn4)C[C@@](O)([C@@H](OC(=O)c4ccccc4)[C@@H]12)C3(C)C	t
CC(=O)O[C@H]1C(=O)[C@@]2(C)[C@H]([C@H](OC(=O)c3ccccc3)[C@]3(O)C[C@H](OC(=O)[C@H](O)[C@@H](NC(=O)c4ccccc4)c4ccccc4)C(C)=C1C3(C)C)[C@]1(OC(C)=O)CO[C@@H]1C[C@@H]2O	f
CC(=O)O[C@@]12CO[C@@H]1CC[C@@]1(C)[C@@H]3O[C@H](CN4CCOCC4)O[C@@H]3C3=C(C)[C@@H](OC(=O)[C@H](O)[C@@H](NC(=O)OC(C)(C)C)c4ccccc4)C[C@@](O)([C@@H](OC(=O)c4ccccc4)[C@@H]12)C3(C)C	t
CC(=O)O[C@@]12CO[C@@H]1CC[C@@]1(C)[C@@H]3O[C@H](CN4CCOCC4)O[C@@H]3C3=C(C)[C@@H](OC(=O)[C@](C)(O)[C@@H](NC(=O)OC(C)(C)C)c4ccccc4)C[C@@](O)([C@@H](OC(=O)c4ccccc4)[C@@H]12)C3(C)C	f
CC(=O)O[C@@]12CO[C@@H]1CC[C@@]1(C)[C@@H]3O[C@H](CN4CCOCC4)O[C@@H]3C3=C(C)[C@@H](OC(=O)[C@](C)(O)[C@@H](NC(=O)c4ccccc4)c4ccccn4)C[C@@](O)([C@@H](OC(=O)c4ccccc4)[C@@H]12)C3(C)C	f

----------
- Tested on: P388
- assay-procedure: Cytotoxic activity against mouse leukemia P388 cell line
- Assay type: functional
Assign labels as follows, please: yes (1) for GI50 below 0.2 ng/mL; no (0) for GI50 equal to or exceeding 0.2 ng/mL.

compound	qualitative-label
CC(=O)O[C@@]12CO[C@@H]1CC[C@@]1(C)[C@@H]3O[C@H](CN4CCOCC4)O[C@@H]3C3=C(C)[C@@H](OC(=O)[C@H](O)[C@@H](NC(=O)OC(C)(C)C)c4ccccc4)C[C@@](O)([C@@H](OC(=O)c4ccccc4)[C@@H]12)C3(C)C	yes (1)
CC(=O)O[C@@]12CO[C@@H]1CC[C@@]1(C)[C@@H]3O[C@H](CN4CCOCC4)O[C@@H]3C3=C(C)[C@@H](OC(=O)[C@](C)(O)[C@@H](NC(=O)OC(C)(C)C)c4ccccn4)C[C@@](O)([C@@H](OC(=O)c4ccccc4)[C@@H]12)C3(C)C	yes (1)
CC(=O)O[C@@]12CO[C@@H]1CC[C@@]1(C)[C@@H]3O[C@H](CN4CCOCC4)O[C@@H]3C3=C(C)[C@@H](OC(=O)[C@](C)(O)[C@@H](NC(=O)c4ccccc4)c4ccccn4)C[C@@](O)([C@@H](OC(=O)c4ccccc4)[C@@H]12)C3(C)C	yes (1)
CC(=O)O[C@@]12CO[C@@H]1C[C@H](O)[C@@]1(C)C(=O)[C@H](O)C3=C(C)[C@@H](OC(=O)[C@H](O)[C@@H](NC(=O)OC(C)(C)C)c4ccccc4)C[C@@](O)([C@@H](OC(=O)c4ccccc4)[C@H]21)C3(C)C.O.O.O [DOCETAXEL]	no (0)
CC(=O)O[C@@]12CO[C@@H]1CC[C@@]1(C)[C@@H]3O[C@H](CN4CCOCC4)O[C@@H]3C3=C(C)[C@@H](OC(=O)[C@H](O)[C@@H](NC(=O)OC(C)(C)C)c4ccccn4)C[C@@](O)([C@@H](OC(=O)c4ccccc4)[C@@H]12)C3(C)C	yes (1)
CC(=O)O[C@@]12CO[C@@H]1CC[C@@]1(C)[C@@H]3O[C@H](CN4CCOCC4)O[C@@H]3C3=C(C)[C@@H](OC(=O)[C@](C)(O)[C@@H](NC(=O)OC(C)(C)C)c4ccccc4)C[C@@](O)([C@@H](OC(=O)c4ccccc4)[C@@H]12)C3(C)C	yes (1)
CC(=O)O[C@H]1C(=O)[C@@]2(C)[C@H]([C@H](OC(=O)c3ccccc3)[C@]3(O)C[C@H](OC(=O)[C@H](O)[C@@H](NC(=O)c4ccccc4)c4ccccc4)C(C)=C1C3(C)C)[C@]1(OC(C)=O)CO[C@@H]1C[C@@H]2O [PACLITAXEL]	no (0)
